- TESTED ON: seven human 14-3-3 isoforms
- METHOD DESCRIPTION: Affinities averaged or compared across the 14-3-3 family (ΔΔGav, KD ratios, affinity maps)
- Format: binding
- APPLIED CONDITIONS: Figure 4 panel b; 14-3-3γ
Starred links: 1 amine or outer side, 2 acyl side, 3 side chain; linkers in the order of their positions; H or OH if unused. Non-standard residues stand in square brackets, D forms with d. Residues, ends and D or L forms follow the SMILES beside them. *: point of attachment. X1 = O=C(CCCC[C@@H]1SC[C@@H]2NC(=O)N[C@@H]21)NCCCOCCOCCOCCCN*; pT = C[C@@H](OP(=O)(O)O)[C@H](N)C(=O)O; Suc = O=C(CCC(=O)[*:2])[*:1]
Entries and their KD ratios, compared to LRRK2 pS910/pS935, 14-3-3γ values follow.
Enter the number alone.

Examples from the recorded data:
- MOLECULE: "CC(C)[C@H](NC(=O)[C@H](CCC(=O)O)NC(=O)[C@@H](NC(=O)[C@H](CCC(=O)O)NC(=O)[C@H](CCCNC(=N)N)NC(=O)[C@H](CCCNC(=N)N)NC(=O)[C@H](CCCNC(=N)N)NC(=O)[C@@H]1CCCN1C(=O)[C@H](CCCCN)NC(=O)[C@H](CO)NC(=O)CCC(=O)NCCCOCCOCCOCCCNC(=O)CCCC[C@@H]1SC[C@@H]2NC(=O)N[C@@H]21)[C@@H](C)OP(=O)(O)O)C(=O)O [pHPV35E6T-6R] ({X1-Suc}-SKPRRRE[pT]EV-OH)"
  MEASURED VALUE: 22250
- MOLECULE: "CC(C)[C@H](NC(=O)[C@H](C)NC(=O)[C@@H](NC(=O)[C@H](CCC(=O)O)NC(=O)[C@H](CCCNC(=N)N)NC(=O)[C@H](CCCNC(=N)N)NC(=O)[C@@H](NC(=O)[C@@H]1CCCN1C(=O)[C@H](CCCCN)NC(=O)[C@H](CO)NC(=O)CCC(=O)NCCCOCCOCCOCCCNC(=O)CCCC[C@@H]1SC[C@@H]2NC(=O)N[C@@H]21)[C@@H](C)O)[C@@H](C)OP(=O)(O)O)C(=O)O [pHPV35E6E-1A] ({X1-Suc}-SKPTRRE[pT]AV-OH)"
  MEASURED VALUE: 2909.38
- MOLECULE: "CC(C)C[C@H](NC(=O)[C@H](CCC(N)=O)NC(=O)[C@@H](NC(=O)[C@H](CCC(=O)O)NC(=O)[C@H](CCCNC(=N)N)NC(=O)[C@H](CCCNC(=N)N)NC(=O)[C@@H](NC(=O)[C@H](CCCNC(=N)N)NC(=O)[C@H](CO)NC(=O)[C@H](CO)NC(=O)CCC(=O)NCCCOCCOCCOCCCNC(=O)CCCC[C@@H]1SC[C@@H]2NC(=O)N[C@@H]21)[C@@H](C)O)[C@@H](C)OP(=O)(O)O)C(=O)O [pHPV16E6]"
  MEASURED VALUE: 11625

From here, focus on the item given below.
-- ask Returns the measured KD ratios, compared to LRRK2 pS910/pS935, 14-3-3γ for the input molecule. Input: CC(C)C[C@H](NC(=O)[C@H](CCCNC(=N)N)NC(=O)CCC(=O)NCCCOCCOCCOCCCNC(=O)CCCC[C@@H]1SC[C@@H]2NC(=O)N[C@@H]21)C(=O)N[C@@H](CCC(N)=O)C(=O)N[C@@H](CCCNC(=N)N)C(=O)N[C@@H](CCCNC(=N)N)C(=O)N[C@@H](CCCNC(=N)N)C(=O)N[C@@H](CCC(=O)O)C(=O)N[C@H](C(=O)N[C@@H](CCC(N)=O)C(=O)N[C@H](C(=O)O)C(C)C)[C@@H](C)OP(=O)(O)O [pHPV18E6]
-- reply 3437.50

###

- TESTED ON: seven human 14-3-3 isoforms
- METHOD DESCRIPTION: Affinities averaged or compared across the 14-3-3 family (ΔΔGav, KD ratios, affinity maps)
- Type: binding
- APPLIED CONDITIONS: Figure 4 panel b; 14-3-3γ
Starred links: 1 amine or outer side, 2 acyl side, 3 side chain; linkers in the order of their positions; H or OH if unused. Non-standard residues stand in square brackets, D forms with d. Residues, ends and D or L forms follow the SMILES beside them. *: point of attachment. X1 = O=C(CCCC[C@@H]1SC[C@@H]2NC(=O)N[C@@H]21)NCCCOCCOCCOCCCN*; pT = C[C@@H](OP(=O)(O)O)[C@H](N)C(=O)O; Suc = O=C(CCC(=O)[*:2])[*:1]
QUANTITY NAME: KD ratios, compared to LRRK2 pS910/pS935, 14-3-3γ
Enter the number alone.

-- ask Returns the measured KD ratios, compared to LRRK2 pS910/pS935, 14-3-3γ for the input molecule. Input: CC(C)C[C@H](NC(=O)[C@H](C)NC(=O)[C@@H](NC(=O)[C@H](CCC(=O)O)NC(=O)[C@H](CCCNC(=N)N)NC(=O)[C@H](CCCNC(=N)N)NC(=O)[C@H](CCCNC(=N)N)NC(=O)[C@H](CO)NC(=O)[C@H](CCCNC(=N)N)NC(=O)[C@H](CO)NC(=O)CCC(=O)NCCCOCCOCCOCCCNC(=O)CCCC[C@@H]1SC[C@@H]2NC(=O)N[C@@H]21)[C@@H](C)OP(=O)(O)O)C(=O)O [pHPV33E6] ({X1-Suc}-SRSRRRE[pT]AL-OH)
-- reply 293.75

###

- TESTED ON: 14-3-3ζ (Homo sapiens, UniProt P63104)
- Construct: Plasmids containing the cDNAs of the full-length 14-3-3 isoforms ε, γ, and ζ were received
- Sequence (P63104 1-245): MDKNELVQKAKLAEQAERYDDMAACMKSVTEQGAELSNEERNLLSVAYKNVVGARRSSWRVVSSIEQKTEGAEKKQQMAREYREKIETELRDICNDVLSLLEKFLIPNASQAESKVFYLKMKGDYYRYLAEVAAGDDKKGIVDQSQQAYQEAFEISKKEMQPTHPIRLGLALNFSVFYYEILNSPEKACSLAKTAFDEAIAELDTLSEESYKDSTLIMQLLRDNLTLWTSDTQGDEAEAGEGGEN
- METHOD DESCRIPTION: biochemical
Starred links: 1 amine or outer side, 2 acyl side, 3 side chain; linkers in the order of their positions; H or OH if unused. Non-standard residues stand in square brackets, D forms with d. Residues, ends and D or L forms follow the SMILES beside them. *: point of attachment. X1 = O=C(CCCC[C@@H]1SC[C@@H]2NC(=O)N[C@@H]21)NCCCOCCOCCOCCCN*; pT = C[C@@H](OP(=O)(O)O)[C@H](N)C(=O)O; Suc = O=C(CCC(=O)[*:2])[*:1]
Entries and their Kd values follow.
Give the figure together with its unit, number first.

- COMPOUND: "CC(C)[C@H](NC(=O)[C@H](CCC(=O)O)NC(=O)[C@@H](NC(=O)[C@H](CCC(=O)O)NC(=O)[C@H](CCCNC(=N)N)NC(=O)[C@H](CCCNC(=N)N)NC(=O)[C@H](CCCNC(=N)N)NC(=O)[C@@H]1CCCN1C(=O)[C@H](CCCCN)NC(=O)[C@H](CO)NC(=O)CCC(=O)NCCCOCCOCCOCCCNC(=O)CCCC[C@@H]1SC[C@@H]2NC(=O)N[C@@H]21)[C@@H](C)OP(=O)(O)O)C(=O)O [pHPV35E6T-6R] ({X1-Suc}-SKPRRRE[pT]EV-OH)"
  Kd: "139 µM"

From here, focus on the item given below.
-- ask Returns the measured Kd for the input compound. Input: CC(C)C[C@H](NC(=O)[C@H](CCCNC(=N)N)NC(=O)CCC(=O)NCCCOCCOCCOCCCNC(=O)CCCC[C@@H]1SC[C@@H]2NC(=O)N[C@@H]21)C(=O)N[C@@H](CCC(N)=O)C(=O)N[C@@H](CCCNC(=N)N)C(=O)N[C@@H](CCCNC(=N)N)C(=O)N[C@@H](CCCNC(=N)N)C(=O)N[C@@H](CCC(=O)O)C(=O)N[C@H](C(=O)N[C@@H](CCC(N)=O)C(=O)N[C@H](C(=O)O)C(C)C)[C@@H](C)OP(=O)(O)O
-- reply 22.4 µM

###

- TESTED ON: seven human 14-3-3 isoforms
- METHOD DESCRIPTION: Affinities averaged or compared across the 14-3-3 family (ΔΔGav, KD ratios, affinity maps)
- Format: binding
- APPLIED CONDITIONS: Figure 4 panel b; 14-3-3η
Starred links: 1 amine or outer side, 2 acyl side, 3 side chain; linkers in the order of their positions; H or OH if unused. Non-standard residues stand in square brackets, D forms with d. Residues, ends and D or L forms follow the SMILES beside them. *: point of attachment. X1 = O=C(CCCC[C@@H]1SC[C@@H]2NC(=O)N[C@@H]21)NCCCOCCOCCOCCCN*; pT = C[C@@H](OP(=O)(O)O)[C@H](N)C(=O)O; Suc = O=C(CCC(=O)[*:2])[*:1]
Label yes (1) when KD ratios, compared to LRRK2 pS910/pS935, 14-3-3η is strictly below 5000; at or above that, label no (0).

- MOLECULE: "CC(C)C[C@H](NC(=O)[C@H](C)NC(=O)[C@@H](NC(=O)[C@H](CCC(=O)O)NC(=O)[C@H](CCCNC(=N)N)NC(=O)[C@H](CCCNC(=N)N)NC(=O)[C@H](CCCNC(=N)N)NC(=O)[C@H](CO)NC(=O)[C@H](CCCNC(=N)N)NC(=O)[C@H](CO)NC(=O)CCC(=O)NCCCOCCOCCOCCCNC(=O)CCCC[C@@H]1SC[C@@H]2NC(=O)N[C@@H]21)[C@@H](C)OP(=O)(O)O)C(=O)O [pHPV33E6] ({X1-Suc}-SRSRRRE[pT]AL-OH)"
  ANSWER LABEL: "yes (1)"
- MOLECULE: "CC(C)[C@H](NC(=O)[C@H](CCC(=O)O)NC(=O)[C@@H](NC(=O)[C@H](CCC(=O)O)NC(=O)[C@H](CCCNC(=N)N)NC(=O)[C@H](CCCNC(=N)N)NC(=O)[C@H](CCCNC(=N)N)NC(=O)[C@@H]1CCCN1C(=O)[C@H](CCCCN)NC(=O)[C@H](CO)NC(=O)CCC(=O)NCCCOCCOCCOCCCNC(=O)CCCC[C@@H]1SC[C@@H]2NC(=O)N[C@@H]21)[C@@H](C)OP(=O)(O)O)C(=O)O [pHPV35E6T-6R] ({X1-Suc}-SKPRRRE[pT]EV-OH)"
  ANSWER LABEL: "no (0)"
- MOLECULE: "CC(C)C[C@H](NC(=O)[C@H](CCC(N)=O)NC(=O)[C@@H](NC(=O)[C@H](CCC(=O)O)NC(=O)[C@H](CCCNC(=N)N)NC(=O)[C@H](CCCNC(=N)N)NC(=O)[C@@H](NC(=O)[C@H](CCCNC(=N)N)NC(=O)[C@H](CO)NC(=O)[C@H](CO)NC(=O)CCC(=O)NCCCOCCOCCOCCCNC(=O)CCCC[C@@H]1SC[C@@H]2NC(=O)N[C@@H]21)[C@@H](C)O)[C@@H](C)OP(=O)(O)O)C(=O)O"
  ANSWER LABEL: "no (0)"

-- ask hey, is KD ratios, compared to LRRK2 pS910/pS935, 14-3-3η for CC(C)[C@H](NC(=O)[C@H](C)NC(=O)[C@@H](NC(=O)[C@H](CCC(=O)O)NC(=O)[C@H](CCCNC(=N)N)NC(=O)[C@H](CCCNC(=N)N)NC(=O)[C@@H](NC(=O)[C@@H]1CCCN1C(=O)[C@H](CCCCN)NC(=O)[C@H](CO)NC(=O)CCC(=O)NCCCOCCOCCOCCCNC(=O)CCCC[C@@H]1SC[C@@H]2NC(=O)N[C@@H]21)[C@@H](C)O)[C@@H](C)OP(=O)(O)O)C(=O)O [pHPV35E6E-1A] ({X1-Suc}-SKPTRRE[pT]AV-OH) lower than 5000 or not?
-- reply yes (1)
